# EXPERIMENTAL_TARGET: MycC (Homo sapiens, UniProt P01106)
# Construct: endogenous in cells; host or cells: L363
# Sequence (P01106 whole entry): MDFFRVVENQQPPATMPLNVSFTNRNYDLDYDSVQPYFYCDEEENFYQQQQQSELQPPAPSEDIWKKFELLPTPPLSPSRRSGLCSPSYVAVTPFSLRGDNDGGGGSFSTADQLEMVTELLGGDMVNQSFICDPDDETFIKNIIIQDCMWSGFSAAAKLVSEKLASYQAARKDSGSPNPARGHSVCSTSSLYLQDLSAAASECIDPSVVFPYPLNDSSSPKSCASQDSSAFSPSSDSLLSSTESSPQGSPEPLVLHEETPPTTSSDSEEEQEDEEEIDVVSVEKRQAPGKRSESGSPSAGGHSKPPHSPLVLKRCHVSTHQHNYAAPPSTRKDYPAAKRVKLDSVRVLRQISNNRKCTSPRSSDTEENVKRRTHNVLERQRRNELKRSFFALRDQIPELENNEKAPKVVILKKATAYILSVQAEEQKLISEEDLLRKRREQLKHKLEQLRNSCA
# PROCEDURE_DETAILS: Degradation of MycC protein in L363 cells (JESS/Western blot)
# Assay type: cell-based
# EXPERIMENTAL_SETUP: L-363 cells, 24 h, 0.5 μM; read-out: % Degradation of MycC (L-363) 24 h, 0.5 μM
MEASUREMENT_KIND: Dmax at 0.5 µM

**Q:** With MycC (Homo sapiens, UniProt P01106) as the test system, provide measured Dmax at 0.5 µM for this compound: c1cc(Nc2cc(C3CC3)[nH]n2)nc(NC2CC3(CNC3)C2)n1 [Compound 28]
**A:** < 20%

**Q:** With MycC (Homo sapiens, UniProt P01106) as the test system, provide measured Dmax at 0.5 µM for this compound: c1cc(Nc2cc(C3CCCC3)[nH]n2)nc(NC2CC3(CNC3)C2)n1 [Compound 30]
**A:** 80 to 100%

**Q:** With MycC (Homo sapiens, UniProt P01106) as the test system, provide measured Dmax at 0.5 µM for this compound: CN1CC2(CCC(N(C)c3nccc(Nc4cc(C5CC5)[nH]n4)n3)CC2)C1 [Compound 49]
**A:** 50 to 79%

**Q:** With MycC (Homo sapiens, UniProt P01106) as the test system, provide measured Dmax at 0.5 µM for this compound: CN1CC2(CC(Nc3nccc(Nc4cc(C5CCCC5)[nH]n4)n3)C2)C1 [Compound 38]
**A:** 20 to 49%

**Q:** With MycC (Homo sapiens, UniProt P01106) as the test system, provide measured Dmax at 0.5 µM for this compound: Cn1cc(C(=O)N2CC3(CC(Nc4nccc(Nc5cc(C6CCCC6)[nH]n5)n4)C3)C2)nn1 [Compound 39]
**A:** 20 to 49%

**Q:** With MycC (Homo sapiens, UniProt P01106) as the test system, provide measured Dmax at 0.5 µM for this compound: c1cc(Nc2cc(C3CCCC3)[nH]n2)nc(NC2CCNCC2)n1 [Compound 32]
**A:** 50 to 79%

**Q:** With MycC (Homo sapiens, UniProt P01106) as the test system, provide measured Dmax at 0.5 µM for this compound: c1cc(Nc2cc(C3CC3)[nH]n2)nc(NC2CCNCC2)n1 [Compound 29]
**A:** 50 to 79%

**Q:** With MycC (Homo sapiens, UniProt P01106) as the test system, provide measured Dmax at 0.5 µM for this compound: c1cc(Nc2cc(C3CC3)[nH]n2)nc(NC2CCOCC2)n1 [Compound 65]
**A:** 20 to 49%

**Q:** With MycC (Homo sapiens, UniProt P01106) as the test system, provide measured Dmax at 0.5 µM for this compound: CN1CC2(CCC(Nc3nccc(Nc4cc(C5CC5)[nH]n4)n3)CC2)C1 [Compound 34]
**A:** < 20%
